Each item that follows carries a reported pKd.
Target: T1, APBA1_2, Q02410
T1 sequence (Q02410 742-832, limits assumed, looked up): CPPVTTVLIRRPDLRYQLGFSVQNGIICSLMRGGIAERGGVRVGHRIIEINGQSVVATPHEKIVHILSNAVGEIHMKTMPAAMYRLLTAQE
Assay: holdup assay
Design: key: below the threshold = too weak to quantify, mostly under pKd 3.1 to 4
Conditions: plain residues with an end cap or a label only (N-terminal biotin on a linker: ado-ado)
Just the number, please, no unit attached.

Some binders with known pKd results, for comparison:
binder	pKd
GQNMTVSVVI [PRLHR, P49683]	3.87
IKLETKKTKL [SLC15A2, Q16348]	3.67
IQISELETNV [SLC1A7, O00341]	3.83

Task: Input TKDKVQETQI [LRRC4, Q9HBW1] , output reported pKd.
Result: 3.55

Task: Respond only with pKd recorded for EAVTVESTSL [SLC22A11, Q9NSA0]
Result: 3.86

Task: Indicate the recorded pKd value for this binder: TFSRRPKTRV [CD226, Q15762]
Result: 3.48

Task: Using known records, supply pKd for VYEVPVETKF [SLC26A3, P40879]
Result: 3.58

Task: Given KLQNPNQSVV [TYRP1, P17643] , respond with its pKd.
Result: 3.56

Task: Report pKd, nothing else, for this binder: HYPASPDSWV [CTNND2, Q9UQB3]
Result: 4.5

Task: Give pKd for the following binder: GVHSNDHSVV [LPAR1, Q92633]
Result: 3.63

Task: Kindly indicate its recorded pKd. Item: KKTPVSRSHL [SLC22A3, O75751]
Result: 3.77
